Listed here: items and their measured inhibition.
# TESTED SYSTEM: Gag-Pro polyprotein (Human T-cell leukemia virus 1 (strain Japan ATK-1 subtype A) (HTLV-1))
# Sequence (whole entry): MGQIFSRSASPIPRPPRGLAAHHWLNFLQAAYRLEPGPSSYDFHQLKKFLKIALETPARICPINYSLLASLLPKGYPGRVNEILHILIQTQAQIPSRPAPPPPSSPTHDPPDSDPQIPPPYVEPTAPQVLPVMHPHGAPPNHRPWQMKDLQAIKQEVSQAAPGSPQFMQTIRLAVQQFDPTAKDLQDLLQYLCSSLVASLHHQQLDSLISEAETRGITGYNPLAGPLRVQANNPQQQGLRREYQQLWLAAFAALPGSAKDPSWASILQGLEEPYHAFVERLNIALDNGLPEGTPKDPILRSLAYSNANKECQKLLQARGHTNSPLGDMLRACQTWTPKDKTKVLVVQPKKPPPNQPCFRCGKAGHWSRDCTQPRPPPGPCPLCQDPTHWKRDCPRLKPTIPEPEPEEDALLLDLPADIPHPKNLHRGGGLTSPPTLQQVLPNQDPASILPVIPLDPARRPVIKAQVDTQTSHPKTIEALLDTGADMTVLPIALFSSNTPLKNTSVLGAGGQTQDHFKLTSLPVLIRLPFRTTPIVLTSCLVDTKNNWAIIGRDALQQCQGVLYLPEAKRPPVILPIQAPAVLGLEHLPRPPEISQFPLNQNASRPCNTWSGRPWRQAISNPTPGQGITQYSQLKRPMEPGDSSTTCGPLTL
# RUN DESCRIPTION: Percent inhibition of synthesized human T-cell leukemia virus type I (HTLV-1) protease was determined at 50 uM concentration
# ASSAY CONTEXT: Human T-cell lymphotrophic virus type 1 (strain ATK)
Starred links: 1 amine or outer side, 2 acyl side, 3 side chain; linkers in the order of their positions; H or OH if unused. Non-standard residues stand in square brackets, D forms with d. Residues, ends and D or L forms follow the SMILES beside them. X1 = O=C(C(O)[C@H](Cc1ccccc1)N[*:1])[*:2]; X2 = CC(C)C[C@H](N[*:1])C(O)C(=O)[*:2]; Thz(5,5-Me2) = CC1(C)SCN[C@@H]1C(=O)O

MOLECULE	inhibition
CSCC[C@H](NC(=O)[C@@H](NC(=O)[C@@H]1CCCN1C(=O)C(O)[C@H](Cc1ccccc1)NC(=O)[C@@H](NC(=O)[C@H](CCC(N)=O)NC(=O)[C@@H]1CCCN1)C(C)C)C(C)C)C(=O)N[C@@H](Cc1c[nH]cn1)C(=O)O (stereo not given in full) (H-PQV[X1]PVMH-OH)	59%
CC(C)CC(=O)N[C@H](C(=O)N[C@H](C(=O)N[C@@H](CC(C)C)[C@@H](O)CC(=O)N[C@@H](C)C(=O)N[C@@H](CC(C)C)[C@@H](O)CC(=O)O)C(C)C)C(C)C	15%
CSCC[C@H](NC(=O)[C@@H](NC(=O)[C@H]1N(C(=O)C(O)[C@H](CC(C)C)NC(=O)[C@@H](NC(=O)[C@H](CCC(N)=O)NC(=O)[C@@H]2CCCN2)C(C)C)CSC1(C)C)C(C)C)C(=O)N[C@@H](Cc1c[nH]cn1)C(=O)O (stereo not given in full) (H-PQV[X2][Thz(5,5-Me2)]VMH-OH)	76%
CSCC[C@H](NC(=O)[C@@H](NC(=O)[C@@H]1CCCN1C(=O)C(O)[C@H](CC(C)C)NC(=O)[C@@H](NC(=O)[C@H](CCC(N)=O)NC(=O)[C@@H]1CCCN1)C(C)C)C(C)C)C(=O)N[C@@H](Cc1c[nH]cn1)C(=O)O (stereo not given in full) (H-PQV[X2]PVMH-OH)	58%
CSCC[C@H](NC(=O)[C@@H](NC(=O)[C@H]1N(C(=O)C(O)[C@H](Cc2ccccc2)NC(=O)[C@@H](NC(=O)[C@H](CCC(N)=O)NC(=O)[C@@H]2CCCN2)C(C)C)CSC1(C)C)C(C)C)C(=O)N[C@@H](Cc1c[nH]cn1)C(=O)O (stereo not given in full) (H-PQV[X1][Thz(5,5-Me2)]VMH-OH)	80%

Source of measurements: ChEMBL document CHEMBL1137065
